- systemTested: human V1a receptor (Homo sapiens, UniProt P37288)
- Construct: host or cells: CHO cells
- Sequence (P37288 whole entry): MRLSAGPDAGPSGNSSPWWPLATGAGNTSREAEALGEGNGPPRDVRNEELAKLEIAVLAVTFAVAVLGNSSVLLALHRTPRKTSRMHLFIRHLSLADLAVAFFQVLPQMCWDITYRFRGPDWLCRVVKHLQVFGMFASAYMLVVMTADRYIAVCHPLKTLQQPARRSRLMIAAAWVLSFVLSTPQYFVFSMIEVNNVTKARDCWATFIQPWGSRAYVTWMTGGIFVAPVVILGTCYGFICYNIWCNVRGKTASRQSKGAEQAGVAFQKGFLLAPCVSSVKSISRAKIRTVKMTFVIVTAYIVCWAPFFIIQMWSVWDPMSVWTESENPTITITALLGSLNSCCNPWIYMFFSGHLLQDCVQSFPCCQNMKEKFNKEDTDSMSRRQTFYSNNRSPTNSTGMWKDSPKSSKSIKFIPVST
- testMethodNotes: Human vasopressin V1a receptor binding assay
- experimentalContext: hV1a CHO cell line, competition with 1 nM 3H-AVP; read-out: V1a Ki
observedProperty: Ki (nM)

Consider the reported Ki for these compounds:
// recorded Ki for O=C(NC1CCCc2ccccc21)C(CCC(=O)N1CCN(C2CCCCC2)CC1)N1C(=O)C(N2C(=O)OCC2c2ccccc2)C1C=Cc1cc(Cl)cc(Cl)c1 (centres unmarked) : 1.1

Reported Ki ( O=C(NCc1cccc(OC(F)(F)F)c1)C(CCC(=O)N1CCN(C2CCCCC2)CC1)N1C(=O)C(N2C(=O)OCC2c2ccccc2)C1C=Cc1ccccc1 (centres unmarked) ) = 2.78

Entry under test: O=C(NCc1cccc(C(F)(F)F)c1F)C(CCC(=O)N1CCN(C2CCCCC2)CC1)N1C(=O)C(N2C(=O)OCC2c2ccccc2)C1C=Cc1ccccc1 (centres unmarked) . Its Ki was 0.2

In plain terms, O=C(NCc1ccccn1)C(CCC(=O)N1CCN(C2CCCCC2)CC1)N1C(=O)C(N2C(=O)OCC2c2ccccc2)C1C=Cc1ccccc1 (centres unmarked) has a documented Ki of 10

# Ki of Cc1ccc(CNC(=O)C(CCC(=O)N2CCN(C3CCCCC3)CC2)N2C(=O)C(N3C(=O)OCC3c3ccccc3)C2C=Cc2ccccc2)o1 (centres unmarked) = 0.58

[A] CCN1CCN(C(=O)CCC(C(=O)NC2(c3ccccc3)CCCC2)N2C(=O)C(N3C(=O)OCC3c3ccccc3)C2C=Cc2ccccc2)CC1 (centres unmarked)
[B] O=C(NC(c1ccccc1)C(F)(F)F)C(CC(=O)N1CCC(N2CCCCC2)CC1)N1C(=O)C(N2C(=O)OCC2c2ccccc2)C1CCc1ccccc1 (centres unmarked) [Example 623]
Looking only at measured Ki, which entry is lower, A or B ? Identify your selection by its label.
B
(B: 0.85 nM, A: 4 nM)
